tested on: MAO; test: Michaelis-Menten constant (Km) for oxidation by rat liver MAO; assay type: ADME

>  <smiles-entry>
CN1CC=C(c2ccccc2CO)CC1

>  <measurement-units>
µM

>  <Km>
370

$$$$

====

test: separate experiments, n=4); assay type: ADME
reported-metric: Km (µM)

>  <smiles-entry>
CN1CC=C(c2ccccc2CF)CC1

>  <measurement-units>
µM

>  <recorded-number>
159

$$$$

====

test: Ratio between Vmax and Km; format: ADME
# Ratio values compiled below
reported-metric: Ratio

>  <smiles-entry>
CN1CC=C(c2ccccc2CF)CC1

>  <recorded-number>
3.83

$$$$
>  <smiles-entry>
CN1CC=C(c2ccccc2CO)CC1

>  <recorded-number>
0.74

$$$$
>  <smiles-entry>
CN1CC=C(c2ccccc2CCl)CC1

>  <recorded-number>
1.24

$$$$
>  <smiles-entry>
CN1CC=C(c2ccccc2)CC1

>  <recorded-number>
2.42

$$$$
